protein stability index by entry:
B1: DLC1 (parent)
chain: KRSWEEHVTHWMGQPFNSDDRNTA

- Variants of: B1
- experiment_summary: protein stability index of a GFP-peptide fusion (GPS, HEK-293T) (PSI 1-6); higher = more stable;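 also: lentivirally expressed fusions sorted by FACS into six bins by GFP to DsRed ratio, PSI derived from sequencing read proportions per bin multiplied by bin number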
- condition_context: c terminus: a fixed tail appended
experimental_endpoint: protein stability index

>>> result("KRSWEEHVWHWMGQPFNSDDRNTA [T9W]")
2.67
>>> result("KRSWEEHVTHWHGQPFNSDDRNTA [M12H]")
2.94
>>> result("KRSWESHVTHWMGQPFNSDDRNTA [E6S]")
3.24
>>> result("KRSWERHVTHWMGQPFNSDDRNTA [E6R]")
3.46
>>> result("KRSWEEHVTHWMGQPFNSEDRNTA [D19E]")
2.76
>>> result("KRRWEEHVTHWMGQPFNSDDRNTA [S3R]")
3.34
>>> result("KRSWEEHVTHWMGQEFNSDDRNTA [P15E]")
3.45
>>> result("KRSWEEQVTHWMGQPFNSDDRNTA [H7Q]")
2.75
>>> result("KRSWEEHVTHWMGQPPNSDDRNTA [F16P]")
2.68
>>> result("KRSWEEMVTHWMGQPFNSDDRNTA [H7M]")
2.84
>>> result("KRSWKEHVTHWMGQPFNSDDRNTA [E5K]")
2.58
>>> result("KRSWEEHVTHWMGAPFNSDDRNTA [Q14A]")
3.23
>>> result("KRSWEEHVTHWMGQPFNSDDRFTA [N22F]")
2.04
>>> result("KRSWEEHVTHWMGQPFSSDDRNTA [N17S]")
2.63
>>> result("KRSWEEHDTHWMGQPFNSDDRNTA [V8D]")
4.42
>>> result("KRSWEEHVTHWMGQPDNSDDRNTA [F16D]")
2.59
>>> result("KRSWEEHVTHWMGQHFNSDDRNTA [P15H]")
2.66
>>> result("KRSWEEHVTHWMGQPFNSYDRNTA [D19Y]")
1.43
>>> result("KRSWEEHITHWMGQPFNSDDRNTA [V8I]")
2.81
>>> result("KRSWEEHVTHMMGQPFNSDDRNTA [W11M]")
2.54
>>> result("LRSWEEHVTHWMGQPFNSDDRNTA [K1L]")
3.03
>>> result("KRSWEEHVTHCMGQPFNSDDRNTA [W11C]")
2.48
>>> result("KRSWEEHRTHWMGQPFNSDDRNTA [V8R]")
4.22
>>> result("KRSWEEHVIHWMGQPFNSDDRNTA [T9I]")
2.62
>>> result("KRSWEEHVPHWMGQPFNSDDRNTA [T9P]")
3.54
>>> result("KRSWEEHVTHWMGQDFNSDDRNTA [P15D]")
1.63
>>> result("KRSWEEHVTHWMGQPFNSDDRSTA [N22S]")
2.74
>>> result("KRSWEEHVTHWMGQPFNSDDRNAA [T23A]")
2.22
>>> result("KYSWEEHVTHWMGQPFNSDDRNTA [R2Y]")
3.25
>>> result("KRSWEEHVTYWMGQPFNSDDRNTA [H10Y]")
1.92
>>> result("KRSWEEHVTHWMGQPQNSDDRNTA [F16Q]")
2.41
>>> result("KRSWEERVTHWMGQPFNSDDRNTA [H7R]")
3.08
>>> result("KRSWEEHVTHWMGQPFNSDDRNSA [T23S]")
2.26
>>> result("KRSWEEFVTHWMGQPFNSDDRNTA [H7F]")
2.84
>>> result("KRSWEEHFTHWMGQPFNSDDRNTA [V8F]")
3.34
>>> result("KRSWEEHMTHWMGQPFNSDDRNTA [V8M]")
3.66
>>> result("KRSWEEHVTHWMGQGFNSDDRNTA [P15G]")
2.43
>>> result("KRSWEEVVTHWMGQPFNSDDRNTA [H7V]")
3.18
>>> result("KRSWEEGVTHWMGQPFNSDDRNTA [H7G]")
4.29
>>> result("KRSWEDHVTHWMGQPFNSDDRNTA [E6D]")
3.06
>>> result("KRSWEPHVTHWMGQPFNSDDRNTA [E6P]")
3.46
>>> result("KRSWEEHVTHWMGQPFNCDDRNTA [S18C]")
2.34
>>> result("KRSWEEHVTHWYGQPFNSDDRNTA [M12Y]")
3.21
>>> result("KRSWEEHVTHWMDQPFNSDDRNTA [G13D]")
2.19
>>> result("KRSWEEHVLHWMGQPFNSDDRNTA [T9L]")
2.53
>>> result("KRSWEEHVTHWMGQPFNSDARNTA [D20A]")
3.41
>>> result("KRSWEEHVTHWKGQPFNSDDRNTA [M12K]")
2.98
>>> result("KRSWEEHVTHWMLQPFNSDDRNTA [G13L]")
2.73
>>> result("KRAWEEHVTHWMGQPFNSDDRNTA [S3A]")
3.44
>>> result("KRSWEEHVTLWMGQPFNSDDRNTA [H10L]")
2.33
>>> result("KRSWEEHVTHWMGQPFASDDRNTA [N17A]")
2.64
>>> result("KRSWEEHVTHWMGHPFNSDDRNTA [Q14H]")
2.36
>>> result("KRSWEEHVTHWMGQPFNSDDRNLA [T23L]")
2.08
>>> result("KRSWHEHVTHWMGQPFNSDDRNTA [E5H]")
3.56
>>> result("KRSWEEHVTHWMGQPFNTDDRNTA [S18T]")
3.21
>>> result("KRKWEEHVTHWMGQPFNSDDRNTA [S3K]")
3.47
>>> result("KRSWEEHVTHWMGQPFNLDDRNTA [S18L]")
2.03
>>> result("KRSWEEHVTHWMGQPFNSDDRNQA [T23Q]")
3.27
>>> result("KRSWEEHVTHWMGQPFNSDDRNTN [A24N]")
2.23
>>> result("WRSWEEHVTHWMGQPFNSDDRNTA [K1W]")
2.49
>>> result("ARSWEEHVTHWMGQPFNSDDRNTA [K1A]")
3.57
>>> result("KDSWEEHVTHWMGQPFNSDDRNTA [R2D]")
4.37
>>> result("KRYWEEHVTHWMGQPFNSDDRNTA [S3Y]")
3.01
>>> result("KRSWEEHVTHWMGQPFNMDDRNTA [S18M]")
2.92
>>> result("KRSWEEHVRHWMGQPFNSDDRNTA [T9R]")
3.1
>>> result("KRSWEEHVTHWMGQPFNSDDRNTI [A24I]")
2.81
>>> result("KRSWEEHVTHWMGQPFNWDDRNTA [S18W]")
2.01
>>> result("KRSWWEHVTHWMGQPFNSDDRNTA [E5W]")
3.37
>>> result("QRSWEEHVTHWMGQPFNSDDRNTA [K1Q]")
3.76
>>> result("KRSEEEHVTHWMGQPFNSDDRNTA [W4E]")
5.05
>>> result("KRSWEEHVEHWMGQPFNSDDRNTA [T9E]")
3.84
>>> result("KRSWEEHVTHWMGQPFNSDDRNMA [T23M]")
1.73
>>> result("KRSWEEHVTHRMGQPFNSDDRNTA [W11R]")
3.29
>>> result("KRSWEEHVTCWMGQPFNSDDRNTA [H10C]")
2.92
>>> result("KRSWEEHVTTWMGQPFNSDDRNTA [H10T]")
2.32
>>> result("KRSWEEHVTHIMGQPFNSDDRNTA [W11I]")
3.01
>>> result("KRSWEEHVTHWMGIPFNSDDRNTA [Q14I]")
2.44
>>> result("KRTWEEHVTHWMGQPFNSDDRNTA [S3T]")
2.13
>>> result("KRSWEEHVTHWMGQPFNEDDRNTA [S18E]")
2.97
>>> result("KRSWELHVTHWMGQPFNSDDRNTA [E6L]")
2.58
>>> result("KRSWEEHVTGWMGQPFNSDDRNTA [H10G]")
2.57
>>> result("KRSWEEHVTHWMGQPFNSDPRNTA [D20P]")
2.76
>>> result("KLSWEEHVTHWMGQPFNSDDRNTA [R2L]")
3.28
>>> result("KRSWEEHVTHWDGQPFNSDDRNTA [M12D]")
2.7
>>> result("KRSWEEHVTHWMGQPFVSDDRNTA [N17V]")
2.26
>>> result("TRSWEEHVTHWMGQPFNSDDRNTA [K1T]")
3.35
>>> result("KRSWEEHVTHWMGQPFWSDDRNTA [N17W]")
2.77
>>> result("KRSWEEHVTHWRGQPFNSDDRNTA [M12R]")
2.49
>>> result("KRSWEEHVTHWMGQTFNSDDRNTA [P15T]")
2.29
>>> result("KRMWEEHVTHWMGQPFNSDDRNTA [S3M]")
3.35
>>> result("KRSWEEHVQHWMGQPFNSDDRNTA [T9Q]")
3.6
